Where do these numbers come from? They come from paper PMC6908968.

# Target Of Assay: T1, thermolysin-cleaved EBOV GP on Jurkat-GP cells (cleaved GP) (Zaire ebolavirus, Makona (GP1 core …, strain))
# T1 chain 1: not shown
# T1 chain 2: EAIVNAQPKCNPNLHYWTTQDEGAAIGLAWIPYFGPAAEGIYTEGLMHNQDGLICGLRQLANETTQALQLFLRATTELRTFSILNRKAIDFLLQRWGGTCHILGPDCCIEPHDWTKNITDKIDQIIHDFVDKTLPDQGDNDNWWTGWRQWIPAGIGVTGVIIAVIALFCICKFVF

Binder	binding result
5.6.c3067 (antibody, V domains shown) VH: EVQLVESGGGLVQPGGSLRLSCAASGFTFSNYWMTWVRQAPGKGLEWVGNIKEDGSEKYYVDSVKGRFTISRDNAKNSLYLQLNNLRAEDTAVYYCAREPAGFVFEGGFDYWGQGTLVTVSS VL: DIQMTQSPSSVSASVGDRVTILCRASQYITTWLAWYQQKPGRAPKLLISAASTLQSGVPSRFSGSGSGTDFTLTISSLQPEDFATYYCQQAHSLPWTFGQGTKVEIK	binds
5.6.c4013 (antibody, V domains shown) VH: EVQLVESGGDLVQPGGSLRLSCAASGFTVNANYLGWVRQTPGKGLEWVSLIYSGSGSTYYADSVKGRFTLSRDSSKNTLFLHMNSLRPEDTAVYYCARAGGVVVTAIRTTFDYWGRGTLVTVSS VL: DIQMTQSPSTLSASVGDRVTITCRASQSISRWLAWYQQKPGKAPKLLIYRASSLQNGVPSRFSGSGSGTEFTLTISGLQPDDFGIYYCQEYSSRYTFGQGTQLEIK	binds
5.6.c3508 (antibody, V domains shown) VH: QVQLEQSGAEVKKPGASVKVSCQAAGYTFTSYGISWVRQAPGQGLEWMGWISADNGNTKYAQNLQARVTMTTDTSTSTAYMEVRRLRSDDTAVYYCARDSGDLSSLLYYGMDVWGQGTTVTVSS VL: DIQLTQSPSFLSASVGDRVTITCRASQGISSYLAWYQQKPGKAPKLLIDAASTLQSGVPSRISGSRSGTEYTLTISSLQPEDFATYYCQQLNNFPFTFGPGTKVDIK	binds
